Test system: SK-MEL-28 melanoma
assayProcedure: NCI tumour cell line growth inhibition, 48 h
Measured TGI values are reported for all entries that follow.
observationType: TGI (µM)

>>> df
                                   compound  observationtype  valuecomparator  reportedvalue
0  C=C1C(=O)O[C@H]2[C@@H]3O[C@@](C)(CC/C=C(\C)CCC[C@@H]2C)[C@H](O)C[C@@H]13              TGI                =           38.8
1        c1ccc2sc(C3(N4CCCCCC4)CCCCC3)cc2c1              TGI                =             55
2  N/C(=N\O)c1cn(C2OC(CO)C(O)C2O)c2ncnc(N)c12 (stereo not given)              TGI                =          0.382
3   CCN(CC)CCN1C(=O)c2cccc3cc(N)cc(c23)C1=O              TGI                =           36.1
4  O=C(CC1(O)C(=O)Nc2ccc(Br)cc21)c1cccc([N+](=O)[O-])c1 (stereo not given)              TGI                >            100
5  COC(=O)c1nc2n(n1)-c1ccccc1C(=O)N(Cc1ccccc1)C2              TGI                >            100
6           CCc1c(N=[N+]=[N-])c2ccccc2oc1=O              TGI                >            100
7  CSc1ccc(/C=C2\N=C(c3ccccc3)N(NC(=O)c3c(Cl)c(Cl)c(Cl)c(Cl)c3-c3nc4ccccc4[nH]3)C2=O)cc1              TGI                >            100
8  O=C(O)OC12CCCCCC1C(=O)C1CCCCC12 (stereo not given)              TGI                >            100
9  COc1ccc(C2OC2C(=O)C23CC4CC(CC(C4)C2)C3)cc1 (stereo not given)              TGI                >            100
